This collection of values is drawn from patent US20180185504A1.

I'd appreciate it if you could supply koff values for the items below.
Molecular target: T1, hPRLR.mFc (soluble dimeric human PRLR) (human)
T1 construct: dimeric PRLR construct
T1 chain: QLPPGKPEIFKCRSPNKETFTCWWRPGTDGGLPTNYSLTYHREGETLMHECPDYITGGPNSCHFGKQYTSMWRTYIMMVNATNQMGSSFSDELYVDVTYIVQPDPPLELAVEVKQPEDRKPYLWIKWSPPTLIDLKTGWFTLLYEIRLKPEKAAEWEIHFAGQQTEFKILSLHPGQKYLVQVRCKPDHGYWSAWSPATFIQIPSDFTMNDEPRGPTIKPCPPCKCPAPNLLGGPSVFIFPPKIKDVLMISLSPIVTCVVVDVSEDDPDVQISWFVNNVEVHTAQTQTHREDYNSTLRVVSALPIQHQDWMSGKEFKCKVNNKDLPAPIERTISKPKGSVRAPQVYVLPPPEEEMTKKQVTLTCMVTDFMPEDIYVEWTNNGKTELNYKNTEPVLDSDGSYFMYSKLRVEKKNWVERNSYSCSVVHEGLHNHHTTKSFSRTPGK
Test: SPR (Biacore), antibody capture, 37 C
Express it in s⁻¹; write the number only.

Entry H1H6785P (antibody, human IgG1, V domains shown, human IgG1 Fc (H1H)) VH: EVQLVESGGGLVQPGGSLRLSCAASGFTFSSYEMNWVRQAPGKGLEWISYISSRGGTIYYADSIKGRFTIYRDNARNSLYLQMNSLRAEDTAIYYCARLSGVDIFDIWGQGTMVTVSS VL: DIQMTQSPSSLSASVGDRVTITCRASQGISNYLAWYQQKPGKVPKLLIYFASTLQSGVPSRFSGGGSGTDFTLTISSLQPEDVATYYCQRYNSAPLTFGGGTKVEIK ; koff = 0.000117

Entry H1H6800P (antibody, human IgG1, V domains shown, human IgG1 Fc (H1H)) VH: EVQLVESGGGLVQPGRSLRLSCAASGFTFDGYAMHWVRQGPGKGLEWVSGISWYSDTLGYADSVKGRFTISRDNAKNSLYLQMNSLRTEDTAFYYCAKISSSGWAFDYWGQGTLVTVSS VL: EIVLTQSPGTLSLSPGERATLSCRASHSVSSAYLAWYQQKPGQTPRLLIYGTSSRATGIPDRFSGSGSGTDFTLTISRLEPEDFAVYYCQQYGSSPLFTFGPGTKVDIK ; koff = 0.000147

Entry H1H6781P (antibody, human IgG1, V domains shown, human IgG1 Fc (H1H)) VH: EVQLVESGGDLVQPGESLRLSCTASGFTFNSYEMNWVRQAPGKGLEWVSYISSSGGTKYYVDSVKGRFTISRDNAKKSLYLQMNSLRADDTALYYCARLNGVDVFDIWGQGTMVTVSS VL: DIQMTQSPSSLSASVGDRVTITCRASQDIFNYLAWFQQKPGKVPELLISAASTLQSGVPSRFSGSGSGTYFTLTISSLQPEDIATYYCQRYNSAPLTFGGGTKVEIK ; koff = 9.84e-05
